# Tested on: EKVX NSCLC
# procedureText: NCI-60 one-dose screen, 48 h (100 = growth as untreated, 0 = no growth, -100 = all killed)
# conditionNotes: 10 µM unless noted
This is part of a sample that, as a whole, favours compounds with a hit. Of some 83,000 tested, about 20% had one in any assay.
Param label: returns true when growth < 20%, returns false otherwise, including exact equality.

A selection of reference data follows.
[
  {
    "compound": "Nc1nn2c(-c3cc4ccccc4oc3=O)ccnc2c1N=Nc1ccccc1",
    "group": "false"
  },
  {
    "compound": "CN1CCN(C(=O)CCN(C(=O)Oc2cc3c(c4ccccc24)[C@H](CCl)CN3C(=O)c2cc3cc(OCCCN4CCC4)ccc3[nH]2)[C@H]2CCSSC2)CC1",
    "group": "true"
  },
  {
    "compound": "O=C(N/N=C/c1ccsc1)c1[nH]c2ccc(Br)cc2c1-c1ccccc1",
    "group": "true"
  },
  {
    "compound": "CC1=C(C(=O)OC(C)C)C(c2ccc(O)cc2)NC(=O)N1 (configuration not stated)",
    "group": "false"
  },
  {
    "compound": "CS(=O)(=O)Nc1cc(-c2ccc3ncnc(Nc4ccc(OCc5cccnc5)c(Cl)c4)c3c2)cnc1Cl",
    "group": "true"
  },
  {
    "compound": "O=C(N=Nc1c(O)[nH]c2ccc(Br)cc12)c1ccc2nc(-c3ccc(Cl)cc3)[nH]c2c1",
    "group": "true"
  }
]

# evaluate next
Is 20% strictly greater than the compound's reported growth? compound: `CC(C)C[C@H](NC(=O)CNC(=O)C[C@H]1O[C@@H]2OC3(C)CC[C@H]4[C@H](C)CC[C@@H]([C@H]1C)[C@@]24O3)B(O)O`
false
